Value source: paper PMC5549482

# measuredTarget: fatty acid amide hydrolase (FAAH) (Homo sapiens)
# Construct: human recombinant FAAH
# Sequence (O00519 1-579): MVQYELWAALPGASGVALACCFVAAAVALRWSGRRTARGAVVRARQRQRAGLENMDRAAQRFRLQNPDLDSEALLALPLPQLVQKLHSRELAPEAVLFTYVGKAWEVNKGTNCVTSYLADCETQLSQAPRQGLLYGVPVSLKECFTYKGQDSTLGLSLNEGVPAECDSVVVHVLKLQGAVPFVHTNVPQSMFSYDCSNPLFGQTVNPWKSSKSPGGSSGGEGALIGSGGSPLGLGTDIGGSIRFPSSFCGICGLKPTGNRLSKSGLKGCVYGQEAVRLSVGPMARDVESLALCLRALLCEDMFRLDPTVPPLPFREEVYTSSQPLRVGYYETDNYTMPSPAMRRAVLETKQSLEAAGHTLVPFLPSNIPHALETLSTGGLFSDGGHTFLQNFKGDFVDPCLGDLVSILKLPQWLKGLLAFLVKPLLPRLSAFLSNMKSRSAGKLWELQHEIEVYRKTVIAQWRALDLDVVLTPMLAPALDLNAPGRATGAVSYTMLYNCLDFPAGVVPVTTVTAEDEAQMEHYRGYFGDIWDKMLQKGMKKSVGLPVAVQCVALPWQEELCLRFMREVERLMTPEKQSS
# testSummary: fluorescence FAAH inhibitor screening kit (Cayman), AMC arachidonoyl amide substrate, […] propofol

[
  {
    "molecule": "CC(C)c1cccc(C(C)C)c1O [propofol]",
    "measuredTarget": "fatty acid amide hydrolase (FAAH) (Homo sapiens)",
    "IC50": "~28 µM"
  }
]
